Values from patent US20260028354A1

Assay System: ER in MCF-7 cells (Homo sapiens (Human))
Sequence (P03372 whole entry): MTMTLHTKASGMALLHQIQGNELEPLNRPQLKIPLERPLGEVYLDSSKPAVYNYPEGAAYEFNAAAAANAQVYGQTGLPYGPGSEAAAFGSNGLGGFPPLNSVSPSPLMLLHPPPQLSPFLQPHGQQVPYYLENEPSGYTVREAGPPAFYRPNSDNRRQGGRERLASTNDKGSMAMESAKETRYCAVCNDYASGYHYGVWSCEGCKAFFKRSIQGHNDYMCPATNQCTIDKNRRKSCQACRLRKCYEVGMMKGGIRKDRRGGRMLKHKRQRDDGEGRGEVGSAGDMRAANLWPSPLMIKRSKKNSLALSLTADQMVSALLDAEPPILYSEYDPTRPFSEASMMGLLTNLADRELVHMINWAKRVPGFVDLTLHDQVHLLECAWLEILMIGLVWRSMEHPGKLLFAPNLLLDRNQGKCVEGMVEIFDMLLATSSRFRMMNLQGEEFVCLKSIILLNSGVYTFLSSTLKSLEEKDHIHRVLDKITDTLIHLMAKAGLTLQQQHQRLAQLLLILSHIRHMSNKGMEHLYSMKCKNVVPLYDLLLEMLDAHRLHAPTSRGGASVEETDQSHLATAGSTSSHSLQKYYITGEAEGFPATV
Method Description: In-cell Western (ICW) ER degradation assay in MCF-7 cells
Format: cell-based
Cond: MCF7, MCF-7, maximal ER degradation, 16 hrs treatment; read-out: MCF7 Dmax
Quantity Kind: Dmax

Recorded results for 2 compounds are shown here.
Compound	Assay System	Measured
COc1cc(N2CCC(CN3CCN4c5ccc6c(c5OC[C@H]4C3)CN([C@H]3CCC(=O)NC3=O)C6=O)CC2)c(F)cc1[C@H]1c2ccc(O)cc2CC[C@H]1c1ccccc1 [Compound A39]	ER in MCF-7 cells (Homo sapiens (Human))	25 to 50%
O=C1CC[C@H](Nc2ccc(C3CCN(C[C@@H]4COC5(CCN(c6ccc([C@H]7c8ccc(O)cc8CC[C@H]7c7ccccc7)cc6)CC5)C4)CC3)c(F)c2)C(=O)N1 (single isomer, unassigned) [Compound A59]	ER in MCF-7 cells (Homo sapiens (Human))	< 25%

## Input Recorded Dmax of O=C1CC[C@H](NC(=O)c2ccc3c(n2)OC[C@H]2CN(C[C@H]4COC5(CCN(c6ccc([C@H]7c8ccc(O)cc8CC[C@H]7c7ccccc7)cc6)CC5)C4)CCN32)C(=O)N1 (single isomer, unassigned) [Compound A15] , please.
## Output 25 to 50%
